# Test system: S. aureus MSSA strains
# assay_notes: Bioscreen-C dose response growth curve of MSSA over 24 hours
# Type: cell-based, Staphylococcus aureus
# condition_description: HCl salts, doses from 100 μg downwards, 10 mM sodium bicarbonate buffer pH-7.4, OD 420-580 nm
endpoint_label: lowest dose at which no MSSA growth was observed (growth curve) (µg)
Unit µg implied. Number only.

Value (lowest dose at which no MSSA growth was observed (growth curve), S. aureus MSSA strains) for record Compound III: PNA-CPP conjugate: PNA SEQ ID NO: 51, Glycine-Glycine linker, CPP BXRXRRXRRXRRXR; FIG. 3 (CGTCATACGCGGTCC; all peptide nucleic acid (PNA); PNA conjugated to cell-penetrating peptide via glycine-glycine linker, end not given here, further chemistry not fully specified) = 25

---

# Tested on: S. aureus MSSA strains
# assay_notes: Bioscreen-C dose response growth curve of MSSA over 24 hours
# Assay type: cell-based, Staphylococcus aureus
# condition_description: HCl salts, doses from 100 μg downwards, 10 mM sodium bicarbonate buffer pH-7.4, OD 420-580 nm
endpoint_label: lowest dose at which no MSSA growth was observed (growth curve) (µg)
Unit µg implied. Number only.

// below: answered substances
[
  {
    "substance": "Compound V: PNA-CPP conjugate: PNA SEQ ID NO: 51, AEEA linker, D-arginine CPP BXdRXdRdRXdRdRXdRdRXdR; FIG. 5 (CGTCATACGCGGTCC; all peptide nucleic acid (PNA); PNA conjugated to D-arginine cell-penetrating peptide via AEEA linker, end not given here, further chemistry not fully specified)",
    "endpoint_unit": "µg",
    "recorded_measurement": 25
  },
  {
    "substance": "Compound IV: PNA-CPP conjugate: PNA SEQ ID NO: 51, AEEA linker, homo-arginine CPP BXhRXhRhRXhRhRXhRhRXhR; FIG. 4 (CGTCATACGCGGTCC; all peptide nucleic acid (PNA); homo-arginine cell-penetrating peptide attached via AEEA linker, further chemistry not fully specified)",
    "endpoint_unit": "µg",
    "recorded_measurement": 6.25
  }
]

Given item Compound II: PNA-CPP conjugate: PNA SEQ ID NO: 51, AEA linker, CPP BXRXRRXRRXRRXR; FIG. 2 (CGTCATACGCGGTCC; all peptide nucleic acid (PNA); PNA conjugated to cell-penetrating peptide BXRXRRXRRXRRXR via AEA linker, end not given here) , the value recorded as its lowest dose at which no MSSA growth was observed (growth curve) is 6.25
